Data origin, for the record: paper PMC6212778

Tested on: c-MYC promoter with Pu19 isomer in MCF-7 cells
Assay: Dual-luciferase assay, c-MYC promoter under control of Pu19
Assay type: cell-based, human
Conditions: MCF-7, 24 h peptide treatment
Experimental: MCF-7 cells are sub-cultured into 24-well microtiter plates at a cell density of 1 × 10^5 cells/well. […] Dual-luciferase assays are performed to examine the intracellular selectivity of peptides for c-MYC quadruplex isomers (Pu27, Myc22 and Pu19) over other oncogenic quadruplexes (BCL-2, VEGF-A and KRAS) of different topologies. […] Renilla and firefly Luciferase activities in 25 μl lysate are quantified by Dual-Luciferase® reporter assay system (Promega) as per manufacturer's recommendations. […]
Measurement kind: c-MYC promoter activation under control of Pu19

Given item N – KRIVKRIKKWLL – C [KR12E, dodecameric mutant peptide derived from FK13 / LL37] , the value recorded as its c-MYC promoter activation under control of Pu19 is no regulatory effect

Given item N – FKRIVQRIKDFLR – C [FK13] , the value recorded as its c-MYC promoter activation under control of Pu19 is attenuated

Given item N – KRIVQRIKKWLR – C [KR12A, dodecameric mutant peptide derived from FK13 / LL37] , the value recorded as its c-MYC promoter activation under control of Pu19 is attenuated

Given item N – KRIVKVIKKWLR – C [KR12D, dodecameric mutant peptide derived from FK13 / LL37] , the value recorded as its c-MYC promoter activation under control of Pu19 is no regulatory effect

---

test system: BCL-2 promoter (BCL-2-GQ) in MCF-7 cells; experiment: Dual-luciferase assay, BCL-2 promoter with BCL-2-GQ; type: cell-based, human; conditions: MCF-7, 24 h, peptide 0–60 μM
Measurement kind: BCL-2 promoter activity

Record N – KRIVKRIKKWLL – C [KR12E, dodecameric mutant peptide derived from FK13 / LL37] has BCL-2 promoter (BCL-2-GQ) in MCF-7 cells BCL-2 promoter activity equal to no significant effects

Record N – KRIVKVIKKWLR – C [KR12D, dodecameric mutant peptide derived from FK13 / LL37] has BCL-2 promoter (BCL-2-GQ) in MCF-7 cells BCL-2 promoter activity equal to no significant effects

---

system: KR12E (synthetic, derived from human LL37); assay: ITC; details: ITC: 10 mM potassium phosphate pH 7.0, 100 mM KCl, 25 C; 20 uM peptide in cell, 500 uM G4 DNA in syringe; one-site fit. NMR: same buffer, 10% D2O, NOESY at …
Measurement kind: Kd (µM)
# unit: µM | format: bare number

Record TGGGGAGGGTGGGGAGGGTGGGGAAGG [Pu27 c-MYC quadruplex] has KR12E (synthetic, derived from human LL37) Kd equal to 53.2

---

test system: KR12C (synthetic, derived from human LL37); assay: ITC; conditions: MCF-7 nuclear extract as solvent (crowding); ITC: 10 mM potassium phosphate pH 7.0, 100 mM KCl, 25 C; 20 uM peptide in cell, 500 uM G4 DNA in syringe; one-site fit. NMR: same buffer, 10% D2O, NOESY at …
Measurement kind: Kd (nM)
# unit: nM | format: bare number

Record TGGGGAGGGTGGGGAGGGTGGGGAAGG [Pu27 c-MYC quadruplex] has KR12C (synthetic, derived from human LL37) Kd equal to 901

---

tested on: native c-MYC quadruplex (Pu27); assay: ITC of peptides with native c-MYC quadruplex Pu27 in potassium phosphate buffer; format: binding, human; conditions: 25°C, 20 μM peptide in cell, 500 μM Pu27 in syringe, 10 mM potassium phosphate, 0.1 M KCl, pH 7.0, one-site model
Measurement kind: ΔH (binding enthalpy)
Field note: include the unit after the figure.

Given item N – KRIVKLIKKWLR – C [KR12C] , the value recorded as its ΔH (binding enthalpy) is -47.8 kcal/mol

Given item N – KRIVKVIKKWLR – C [KR12D, dodecameric mutant peptide derived from FK13 / LL37] , the value recorded as its ΔH (binding enthalpy) is -136 kcal/mol

Given item N – KRIVKRIKKWLR – C [KR12B, dodecameric mutant peptide derived from FK13 / LL37] , the value recorded as its ΔH (binding enthalpy) is -137.3 kcal/mol

Given item N – FKRIVQRIKDFLR – C [FK13] , the value recorded as its ΔH (binding enthalpy) is -77.8 kcal/mol

Given item N – KRIVKRIKKWLL – C [KR12E, dodecameric mutant peptide derived from FK13 / LL37] , the value recorded as its ΔH (binding enthalpy) is -168 kcal/mol

For the next question, use this substance.
Given item N – KRIVQRIKKWLR – C [KR12A, dodecameric mutant peptide derived from FK13 / LL37] , the value recorded as its ΔH (binding enthalpy) is -72 kcal/mol

---

test system: RNAPII at c-MYC promoter in MCF-7 cells; assay: ChIP, RNA polymerase II occupancy at c-MYC promoter; type: cell-based, human; settings: MCF-7, 24 h, ChIP-qPCR versus IgG control
Measurement kind: RNAPII occupancy at c-MYC promoter

Given item N – KRIVKLIKKWLR – C [KR12C] , the value recorded as its RNAPII occupancy at c-MYC promoter is significantly depleted

Given item N – KRIVKRIKKWLR – C [KR12B, dodecameric mutant peptide derived from FK13 / LL37] , the value recorded as its RNAPII occupancy at c-MYC promoter is significantly depleted

---

Listed here: items and their measured ΔG (binding energy).
test system: native c-MYC quadruplex (Pu27); assay: ITC of peptides with native c-MYC quadruplex Pu27 in potassium phosphate buffer; type: binding, human; details: 25°C, 20 μM peptide in cell, 500 μM Pu27 in syringe, 10 mM potassium phosphate, 0.1 M KCl, pH 7.0, one-site model
# unit: kcal/mol | format: bare number

# annotated cases, reported ΔG (binding energy) shown
Given item N – KRIVKRIKKWLR – C [KR12B, dodecameric mutant peptide derived from FK13 / LL37] , the value recorded as its ΔG (binding energy) is -6.18

Given item N – FKRIVQRIKDFLR – C [FK13] , the value recorded as its ΔG (binding energy) is -5.982

More entries:
Given item N – KRIVKRIKKWLL – C [KR12E, dodecameric mutant peptide derived from FK13 / LL37] , the value recorded as its ΔG (binding energy) is -5.89
